Biological target: human acetyl-CoA carboxylase 1 (hACC1) (Homo sapiens, UniProt Q13085)
Assay: In vitro ACC enzyme inhibition (ADP luminescence), hACC1
Type: biochemical
Details: human ACC1 enzyme; 15 min pre-incubation, 1 hour reaction at room temperature
pIC50: −log10 of the molar value.
Quantity kind: pIC50

compound="COc1ccccc1C(Cn1nc(C2(C(=O)O)CCCC2)c(=O)c2c(C)c(-c3ncco3)sc21)OC1CCOCC1 (single isomer, unassigned) [WX001B]" quantity_kind=pIC50 assay_result=8.31
compound="COc1ccccc1C(Cn1nc(C2(C(=O)O)CCC2)c(=O)c2c(C)c(-c3ncco3)sc21)OC1CCOCC1 (stereo not shown)" quantity_kind=pIC50 assay_result=7.69
compound="COc1ccccc1[C@H](Cn1nc(C2(C(=O)O)CCCCC2)c(=O)c2c(C)c(-c3ncco3)sc21)OC1CCOCC1 [WX007B]" quantity_kind=pIC50 assay_result=8.04
compound="COc1ccccc1C(Cn1nc(C2(C(=O)O)CCNCC2)c(=O)c2c(C)c(-c3ncco3)sc21)OC1CCOCC1 (stereo not shown)" quantity_kind=pIC50 assay_result=7.08
compound="COc1ccc(F)cc1[C@H](Cn1nc(C(C)(C)C(=O)O)c(=O)c2c(C)c(-c3ncco3)sc21)OC1CCOCC1 [WX016B]" quantity_kind=pIC50 assay_result=7.95

A = COc1ccccc1[C@H](Cn1nc(C(F)(F)C(=O)O)c(=O)c2c(C)c(-c3ncco3)sc21)OC1CCOCC1 [WX009B]
B = COc1ccccc1C(Cn1nc(C(C)(C)C(=O)O)c(=O)c2c(C)c(-c3ncco3)sc21)OC1CCN(S(C)(=O)=O)CC1 (racemic)
From the recorded data, which exceeds the other in pIC50: A or B ? Indicate which entry you chose by stating its label.
A

* * *

Experiment: Pharmacokinetics in C57BL/6 mice (iv and oral)
Format: in vivo
Details: mouse, plasma; male C57BL/6 mice; iv 2.0 mg/kg, oral 10 mg/kg (route not given)
Quantity kind: clearance (mL/min/kg)

a = COc1ccccc1[C@H](Cn1nc(C2(C(=O)O)CCOCC2)c(=O)c2c(C)c(-c3ncco3)sc21)OC1CCOCC1 [WX008B]
b = COc1ccccc1[C@H](Cn1nc(C(F)(F)C(=O)O)c(=O)c2c(C)c(-c3ncco3)sc21)OC1CCOCC1 [WX009B]
Parameter metric = clearance. Return the lower-valued option from a and b . Indicate which entry you chose by stating its label.
a
